Molecular target: recombinant human angiotensin-II receptor subtype 2 (hAT2R) (Homo sapiens (Human))
Sequence (P50052 whole entry): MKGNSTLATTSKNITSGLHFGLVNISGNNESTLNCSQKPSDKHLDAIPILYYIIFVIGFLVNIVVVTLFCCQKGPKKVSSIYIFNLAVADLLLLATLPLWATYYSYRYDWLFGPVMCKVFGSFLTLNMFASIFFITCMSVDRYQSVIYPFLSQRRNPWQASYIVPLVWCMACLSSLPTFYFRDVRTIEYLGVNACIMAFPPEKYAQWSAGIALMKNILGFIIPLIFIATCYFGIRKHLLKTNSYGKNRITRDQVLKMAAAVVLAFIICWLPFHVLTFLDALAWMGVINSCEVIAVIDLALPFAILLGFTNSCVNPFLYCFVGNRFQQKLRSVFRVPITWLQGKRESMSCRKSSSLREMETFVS
Assay: Competitive radioligand binding assay (SPA), hAT2R HEK293 membranes
Details: [125I]-Tyr4-Angiotensin-II, read-out: AT2R Ki
pKi: −log10 of the molar value.

# compound, system.tested, pKi
rows = [
    ("CN(C(=O)N1CCC(CC(=O)N(c2ccccc2F)C2CCCC(F)(F)C2)(C(=O)O)CC1)c1ccccc1 (racemic)", "recombinant human angiotensin-II receptor subtype 2 (hAT2R) (Homo sapiens (Human))", 9.24),
    ("O=C(CC1(C(=O)O)CCN(C(=O)N(c2ccc(F)cc2)C2CC2)CC1)N(c1ccccc1)c1ccccc1F", "recombinant human angiotensin-II receptor subtype 2 (hAT2R) (Homo sapiens (Human))", 8.86),
    ("CN(C(=O)N1CCC(CC(=O)N(c2ccccc2)C2CCCOC2)(C(=O)O)CC1)c1ccc(C2CC2)cc1 (single isomer, unassigned) [Example 45A]", "recombinant human angiotensin-II receptor subtype 2 (hAT2R) (Homo sapiens (Human))", 8.81),
    ("O=C(N1CCC(CC(=O)N(c2ccccc2)c2ccc(F)cc2)(C(=O)O)CC1)N1CCc2ccccc21", "recombinant human angiotensin-II receptor subtype 2 (hAT2R) (Homo sapiens (Human))", 8.01),
    ("CN(C(=O)N1CCC(CC(=O)N(c2ccccc2)C(C2CC2)C2CC2)(C(=O)O)CC1)c1ccc(F)cc1", "recombinant human angiotensin-II receptor subtype 2 (hAT2R) (Homo sapiens (Human))", 8.02),
]
